tested on: neuron 7C (rhinarial plate on flagellomere 7); assay: single-sensillum electrophysiology, odor response of neuron 7C; assay type: cell-based, Diaphorina citri; conditions: Table 2; odor diluted to 10^−2, 50 μL in cartridge; further: key: 0, no response; +, >50 spikes/second; ++, >100 spikes/second; +++, >150 spikes/second
Can you tell me response to inhibitory odors, 7C for the items I'm about to list?
The response must contain the number and no unit.

Report response to inhibitory odors, 7C, nothing else, for this compound: CC(C)C(=O)O [isobutyric acid]
0

Query response to inhibitory odors, 7C for CCCCCCCCOC(C)=O [n-octyl acetate]
0

Consider the compound Cl.Cl.NCCCCN [putrescine dihydrochloride] and give its recorded response to inhibitory odors, 7C.
0

Complete the entry with response to inhibitory odors, 7C for CC(=O)C(C)=O [2,3-butanedione]
0

Name the recorded response to inhibitory odors, 7C of the item CCCCCCN [hexylamine] in your answer.
0

Read the entry CCCCC(=O)O [pentanoic acid] and write its reported response to inhibitory odors, 7C.
0

Identify measured response to inhibitory odors, 7C corresponding to C=C(C)C1CC=C(C=O)CC1 (centres unmarked) [perillaldehyde]
0

# return recorded response to inhibitory odors, 7C for entry c1ccncc1 [pyridine]
0

Supply response to inhibitory odors, 7C value. Item: CC1CC(=O)O1 (stereo not drawn) [β-butyrolactone]
0

// Input: CCC(=O)O [propionic acid] . Output its response to inhibitory odors, 7C only.
0

Given the compound CCCCCN [pentylamine] , write its reported response to inhibitory odors, 7C.
0

* * *

test system: neuron 2B (rhinarial plate on flagellomere 2); assay: single-sensillum electrophysiology, odor response of neuron 2B; assay type: cell-based, Diaphorina citri; conditions: Table 2; odor diluted to 10^−2, 50 μL in cartridge; further: key: 0, no response; +, >50 spikes/second; ++, >100 spikes/second; +++, >150 spikes/second
Can you tell me response to inhibitory odors, 2B for the items I'm about to list?
Please give the numeric answer without any surrounding text.

Name the recorded response to inhibitory odors, 2B of the item CCCCCCN [hexylamine] in your answer.
0

Identify measured response to inhibitory odors, 2B corresponding to CCCCCC(=O)OCC [ethyl hexanoate]
0

// fetch response to inhibitory odors, 2B given entry c1ccncc1 [pyridine]
0

Recall and state the measured response to inhibitory odors, 2B for C=C(C)C1CC=C(C=O)CC1 (stereo not drawn) [perillaldehyde] .
0

Consider the molecule CNC [dimethyl amine] and give its recorded response to inhibitory odors, 2B.
0

Return the recorded response to inhibitory odors, 2B value; entry: CCCCC(=O)O [pentanoic acid]
0

For the molecule CC(=O)O [acetic acid] , give its reported response to inhibitory odors, 2B.
0

Given the molecule CC(C)C(=O)O [isobutyric acid] , write its reported response to inhibitory odors, 2B.
0

Provide measured response to inhibitory odors, 2B value, entry: CCCCCCCCOC(C)=O [n-octyl acetate]
0

Write down response to inhibitory odors, 2B measured for item CC1CC(=O)O1 (stereo not drawn) [β-butyrolactone]
0

Given CCC(=O)O [propionic acid] , respond with its response to inhibitory odors, 2B.
0

In one line, give reported response to inhibitory odors, 2B of the entry CN1CCCCC1 [N-methylpiperidine] .
0

* * *

system: neuron 4B (rhinarial plate on flagellomere 4); type: cell-based, Diaphorina citri; conditions: Table 1; odor diluted to 1%, 50 μL in cartridge
measured endpoint: odor response (frequency of action potentials during stimulus minus baseline), 4B

[
  {
    "compound": "C=C1CC/C=C(\\C)CC[C@@H]2[C@@H]1CC2(C)C [β-caryophyllene]",
    "target desc": "neuron 4B (rhinarial plate on flagellomere 4)",
    "obs value": 0
  },
  {
    "compound": "C=C(C)C1CC=C(C=O)CC1 (stereo not drawn) [perillaldehyde]",
    "target desc": "neuron 4B (rhinarial plate on flagellomere 4)",
    "obs value": "+ (+, >50 spikes/second)"
  },
  {
    "compound": "CCCCCCCC=O [octanal]",
    "target desc": "neuron 4B (rhinarial plate on flagellomere 4)",
    "obs value": 0
  },
  {
    "compound": "CCCC(C)=O [2-pentanone]",
    "target desc": "neuron 4B (rhinarial plate on flagellomere 4)",
    "obs value": "+ (+, >50 spikes/second)"
  },
  {
    "compound": "C=C1CC[C@H]2C[C@@H]1C2(C)C [(−)-β-pinene]",
    "target desc": "neuron 4B (rhinarial plate on flagellomere 4)",
    "obs value": "+ (+, >50 spikes/second)"
  }
]

Give a short answer stating reported odor response (frequency of action potentials during stimulus minus baseline), 4B for CCC/C=C/C=O [E2-hexenal] .
+ (+, >50 spikes/second)
